FYI, the data here is from ChEMBL document CHEMBL1155031.

Would you mind telling me the reported Ki of each entry?
# TARGET OF ASSAY: Adenosine kinase (Toxoplasma gondii, UniProt Q9TVW2)
# Sequence (Q9TVW2 whole entry): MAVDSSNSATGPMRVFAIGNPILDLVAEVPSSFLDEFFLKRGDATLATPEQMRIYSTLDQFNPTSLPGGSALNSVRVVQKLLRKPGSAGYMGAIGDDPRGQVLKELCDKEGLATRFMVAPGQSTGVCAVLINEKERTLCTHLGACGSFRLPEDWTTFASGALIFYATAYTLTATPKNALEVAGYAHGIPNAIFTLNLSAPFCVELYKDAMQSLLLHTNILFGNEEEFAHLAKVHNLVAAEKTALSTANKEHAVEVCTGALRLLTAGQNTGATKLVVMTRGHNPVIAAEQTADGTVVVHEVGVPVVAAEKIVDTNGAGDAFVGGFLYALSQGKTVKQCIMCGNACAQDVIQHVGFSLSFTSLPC
# ASSAY NAME: Binding affinity to purified Toxoplasma gondii adenosine kinase
# number then unit; no other words

Quick batch: Ki for everything below.
1. N#Cc1ccc(CSc2ncnc3c2ccn3[C@@H]2O[C@H](CO)[C@@H](O)[C@H]2O)cc1
2. OC[C@H]1O[C@@H](n2ccc3c(SCc4c(F)cccc4Cl)ncnc32)[C@H](O)[C@@H]1O
3. OC[C@H]1O[C@@H](n2cnc3c(SCc4ccccc4)ncnc32)[C@H](O)[C@@H]1O
4. OC[C@H]1O[C@@H](n2ccc3c(SCc4ccccc4F)ncnc32)[C@H](O)[C@@H]1O

Key:
1: 5.2 µM; 2: 7.2 µM; 3: 37.7 µM; 4: 59 µM

====

# TARGET OF ASSAY: Adenosine kinase (Toxoplasma gondii)
# ASSAY NAME: Binding affinity to purified Toxoplasma gondii adenosine kinase
QUANTITY NAME: Ki (µM)
One number for each entry, in µM.

Guide cases for Ki, answers given:
[
  {
    "SMILES REPRESENTATION": "Cc1ccccc1CSc1ncnc2c1ccn2[C@@H]1O[C@H](CO)[C@@H](O)[C@H]1O",
    "Ki (µM)": 228
  },
  {
    "SMILES REPRESENTATION": "OC[C@H]1O[C@@H](n2ccc3c(SCc4ccc(F)cc4F)ncnc32)[C@H](O)[C@@H]1O",
    "Ki (µM)": 16
  },
  {
    "SMILES REPRESENTATION": "OC[C@H]1O[C@@H](n2ccc3c(SCc4ccccc4Br)ncnc32)[C@H](O)[C@@H]1O",
    "Ki (µM)": 106
  }
]

Quick batch: Ki for everything below.
1. OC[C@H]1O[C@@H](n2ccc3c(SCc4ccc(Cl)c(Cl)c4)ncnc32)[C@H](O)[C@@H]1O
2. OC[C@H]1O[C@@H](n2ccc3c(SCc4ccc(F)cc4)ncnc32)[C@H](O)[C@@H]1O
3. COC(=O)c1ccc(CSc2ncnc3c2ccn3[C@@H]2O[C@H](CO)[C@@H](O)[C@H]2O)cc1

Key:
1. 29
2. 37
3. 7
